- System: UACC-257 melanoma
- Protocol Notes: NCI-60 one-dose screen, 48 h
- Test Conditions: 10 µM unless noted
Compounds without any hit were thinned out: in the full panel of roughly 83,000, 20% have a hit. Activity calls are given as the source filed them. The calls were made as follows: active = growth percent below 10; inactive = the rest.
Pick from TRUE (active), FALSE (inactive) when you respond.

{"Molecule": "N#C/C(=N\\Nc1ccccc1)C(=O)Nc1cc(-c2ccccc2)nn1-c1ccccc1", "Measurement Target": "UACC-257 melanoma", "Discrete Label": "FALSE"}

Record lookup: outcome of this test for Cc1[nH]c(C2CC(c3ccc(C(F)(F)F)c(F)c3)=NN2C)c(C)c1C(=O)NCC(F)(F)F (centres undefined) ? FALSE

# lookup: test call for CC1=C(C(=O)c2ccccc2)C(c2ccc3c(c2)OCO3)NC(=S)N1 (centres undefined) FALSE

For this molecule, state the assay outcome: CC1=C([Se]CC(OC(=O)[C@@H](CO)NC(=O)OC(C)(C)C)C(=O)NCCCCCC(=O)OCc2ccccc2)C(=O)c2ccccc2C1=O (some centres undefined) TRUE

Hi, sorry to bother you, what did the test record for O=C(/C=C/c1ccc([N+](=O)[O-])cc1)c1cccc(Nc2nc(Nc3ccccc3)nc(Nc3ccccc3)n2)c1 ? FALSE

Lab log entry: Cc1ccc(Nc2nc(N)nc(N)c2N=O)cc1Cl — outcome as called in the assay? FALSE

====

- System: NCI-H23 lung
- Protocol Notes: NCI-60 one-dose screen, 48 h (100 = growth as untreated, 0 = no growth, -100 = all killed)
- Test Conditions: 10 µM unless noted
About 83,000 compounds went through this panel and 20% of them were active in at least one assay; those are over-represented in the sample as a whole.
Tag: yes (1) if measured growth is not below 40%, no (0) if it is.

Completed entries (count: 4):
{"Compound": "CCN1C(=O)N(CC)C2C1NN=c1s/c(=C3\\C(=O)N(C)c4ccccc43)c(=O)n12 (stereo not given)", "Discrete Label": "no (0)"}
{"Compound": "Cc1ccccc1NC(=O)c1sc2nc3c(cc2c1N)CCCC3", "Discrete Label": "yes (1)"}
{"Compound": "CC1=C([Se]CC(OC(=O)[C@@H](CO)NC(=O)OC(C)(C)C)C(=O)NCCCCCC(=O)OCc2ccccc2)C(=O)c2ccccc2C1=O (stereo not given in full)", "Discrete Label": "no (0)"}
{"Compound": "CCOC(=O)c1c(N)sc2cc(O)ccc12", "Discrete Label": "yes (1)"}

In the following, a different compound is considered.
Could you verify whether the entry O=C1C=CC2(O)OC(c3ccccc3)CC(=O)C2=C1O (stereo not given) shows growth of no less than 40%? yes (1)

====

- Test system: UACC-257 melanoma
- Protocol Notes: NCI-60 one-dose screen, 48 h
- Test Conditions: 10 µM unless noted
About 83,000 compounds went through this panel and 20% of them were active in at least one assay; those are over-represented in the sample as a whole. Active and inactive are the calls of the source. How the source made its calls: active means growth percent below 10; inactive means the rest.
Can you answer with just one of these options? t = active, f = inactive

{"Molecule": "CC1(C)C2=C(C(=O)N1Cc1ccccc1)C(c1ccco1)N(C(=O)C1CCC1)CCN2 (stereo not given)", "Discrete Label": "f"}
{"Molecule": "CC(=O)[C@H]1CC[C@]2(C)[C@@H]1CC[C@@H]1[C@@]3(C)C/C(=C/c4cccnc4)C(=O)C(C)(C)[C@@H]3CC[C@]12C", "Discrete Label": "f"}
{"Molecule": "NCCNc1ccc([N+](=O)[O-])cc1", "Discrete Label": "f"}
{"Molecule": "O=C1C(c2c(O)[nH]c3ncccc23)=Nc2ccccc21", "Discrete Label": "f"}

Answer briefly: the call reported for O=C1c2c(c3c4cc(F)ccc4oc3c3[nH]c4ccccc4c23)C(=O)N1O in this assay. f

Recorded test call requested for O=c1c2cccc3c(N4CCOCC4)ccc(c32)c2nc3ccccc3n12 f

# lookup: test call for C[C@H]1c2ccccc2CN1CCCOc1cc2c(cc1OCC1CC1)C1(CCCC1)C(N)=N2 t
